- Test system: HOP-62 complex spheroids with HUVEC/MSC, viability
- measurementProtocol: Anticancer human tumor HOP-62 cell line growth inhibition [RAS];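 also: spheroids exposed to agents for seven days before readout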;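 as to viability, T/C: 100% = DMSO vehicle control viability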
- studyConditions: second compound 0.003 µM; first compound 1 µM; stronger effect = lower value
Below is a list of entries, each paired with its recorded viability, T/C value.
endpoint: viability, T/C (%)

[
  {
    "molecule": "CCN1CCN(Cc2ccc(Nc3ncc(F)c(-c4cc(F)c5nc(C)n(C(C)C)c5c4)n3)nc2)CC1 + CCn1c(-c2cccnc2C(C)OC)c2c3cc(ccc31)N1CCOC(CC(NC(=O)C(C(C)C)N(C)C(=O)C3(F)CCN(C(=O)C#CC(C)(C)N(C)C)CC3)C(=O)N3CCCC(N3)C(=O)OCC(C)(C)C2)C1",
    "endpoint": "viability, T/C",
    "reportedValue": 76.8
  },
  {
    "molecule": "C[C@@H](NC(=O)c1ncnc(N)c1Cl)c1ncc(C(=O)Nc2cc(C(F)(F)F)c(Cl)cn2)s1 + CCn1c(-c2cc(N3CCN(C)CC3)cnc2C(C)OC)c2c3cc(ccc31)-c1csc(n1)CC(NC(=O)C1CC1C)C(=O)N1CCCC(N1)C(=O)OCC(C)(C)C2",
    "endpoint": "viability, T/C",
    "reportedValue": 104
  },
  {
    "molecule": "CC1(O)CCCC1n1c(=O)c(C(F)F)cc2cnc(NC3CCN(S(C)(=O)=O)CC3)nc21 (stereo unspecified) + CCn1c(-c2cc(N3CCN(C)CC3)cnc2C(C)OC)c2c3cc(ccc31)-c1csc(n1)CC(NC(=O)C1CC1C)C(=O)N1CCCC(N1)C(=O)OCC(C)(C)C2",
    "endpoint": "viability, T/C",
    "reportedValue": 62.3
  },
  {
    "molecule": "C[C@@H](NC(=O)c1ncnc(N)c1Cl)c1ncc(C(=O)Nc2cc(C(F)(F)F)c(Cl)cn2)s1 + CCn1c(-c2cccnc2C(C)OC)c2c3cc(ccc31)N1CCOC(CC(NC(=O)C(C(C)C)N(C)C(=O)C3(F)CCN(C(=O)C#CC(C)(C)N(C)C)CC3)C(=O)N3CCCC(N3)C(=O)OCC(C)(C)C2)C1",
    "endpoint": "viability, T/C",
    "reportedValue": 108
  },
  {
    "molecule": "Cc1nc(N2CCC3(CC2)COC(C)C3N)c(CO)nc1Sc1ccnc(N)c1Cl (stereo unspecified) + CCn1c(-c2cccnc2C(C)OC)c2c3cc(ccc31)N1CCOC(CC(NC(=O)C(C(C)C)N(C)C(=O)C3(F)CCN(C(=O)C#CC(C)(C)N(C)C)CC3)C(=O)N3CCCC(N3)C(=O)OCC(C)(C)C2)C1",
    "endpoint": "viability, T/C",
    "reportedValue": 55.6
  },
  {
    "molecule": "CCC(CC)c1cc(NC2CCC(N)C2)n2nccc2n1 (stereo unspecified) + CCn1c(-c2cccnc2C(C)OC)c2c3cc(ccc31)N1CCOC(CC(NC(=O)C(C(C)C)N(C)C(=O)C3(F)CCN(C(=O)C#CC(C)(C)N(C)C)CC3)C(=O)N3CCCC(N3)C(=O)OCC(C)(C)C2)C1",
    "endpoint": "viability, T/C",
    "reportedValue": 118
  }
]

###

- Test system: HOP-62 complex spheroids with HUVEC/MSC, viability
- measurementProtocol: Anticancer human tumor HOP-62 cell line growth inhibition [RAS];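 also: spheroids exposed to agents for seven days before readout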
- studyConditions: curve of first compound; second compound 0.003 µM

[
  {
    "compound": "C[C@@H](NC(=O)c1ncnc(N)c1Cl)c1ncc(C(=O)Nc2cc(C(F)(F)F)c(Cl)cn2)s1 + CCn1c(-c2cccnc2C(C)OC)c2c3cc(ccc31)N1CCOC(CC(NC(=O)C(C(C)C)N(C)C(=O)C3(F)CCN(C(=O)C#CC(C)(C)N(C)C)CC3)C(=O)N3CCCC(N3)C(=O)OCC(C)(C)C2)C1",
    "IC50": "> 10000 nM"
  },
  {
    "compound": "CC(=O)OC12COC1CC(O)C1(C)C(=O)C(O)C3=C(C)C(OC(=O)C(O)C(NC(=O)OC(C)(C)C)c4ccccc4)CC(O)(C(OC(=O)c4ccccc4)C21)C3(C)C (centres undefined) + CCn1c(-c2cc(N3CCN(C)CC3)cnc2C(C)OC)c2c3cc(ccc31)-c1csc(n1)CC(NC(=O)C1CC1C)C(=O)N1CCCC(N1)C(=O)OCC(C)(C)C2",
    "IC50": "< 31.6 nM"
  },
  {
    "compound": "CC1(C)CCC(Nc2ncc(C(F)(F)F)c(-c3c[nH]c4c(P(C)(C)=O)c(C#N)ccc34)n2)CN1 (centres undefined) + CCn1c(-c2cccnc2C(C)OC)c2c3cc(ccc31)N1CCOC(CC(NC(=O)C(C(C)C)N(C)C(=O)C3(F)CCN(C(=O)C#CC(C)(C)N(C)C)CC3)C(=O)N3CCCC(N3)C(=O)OCC(C)(C)C2)C1",
    "IC50": "> 300 nM"
  },
  {
    "compound": "CCc1c2c(nc3ccc(O)cc13)-c1cc3c(c(=O)n1C2)COC(=O)[C@]3(O)CC + CCn1c(-c2cccnc2C(C)OC)c2c3cc(ccc31)N1CCOC(CC(NC(=O)C(C(C)C)N(C)C(=O)C3(F)CCN(C(=O)C#CC(C)(C)N(C)C)CC3)C(=O)N3CCCC(N3)C(=O)OCC(C)(C)C2)C1",
    "IC50": "< 0.949 nM"
  }
]

###

Overview of recorded pIC50 for various molecules
- Test system: HOP-62 complex spheroids with HUVEC/MSC, viability
- measurementProtocol: Anticancer human tumor HOP-62 cell line growth inhibition [RAS];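 also: spheroids exposed to agents for seven days before readout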
- studyConditions: curve of first compound; second compound 0.000949 µM
pIC50: −log10 of the molar value.
endpoint: pIC50

[
  {
    "molecule": "NC1c2ccccc2OC12CCN(c1cnc3c(N4CCCc5ncccc54)n[nH]c3n1)CC2 (centres undefined) + CCn1c(-c2cccnc2C(C)OC)c2c3cc(ccc31)N1CCOC(CC(NC(=O)C(C(C)C)N(C)C(=O)C3(F)CCN(C(=O)C#CC(C)(C)N(C)C)CC3)C(=O)N3CCCC(N3)C(=O)OCC(C)(C)C2)C1",
    "endpoint": "pIC50",
    "limitOperator": "=",
    "reportedValue": 6.74
  },
  {
    "molecule": "C=CC(=O)Nc1cc(Nc2nccc(-c3cn(C)c4ccccc34)n2)c(OC)cc1N(C)CCN(C)C + CCn1c(-c2cc(N3CCN(C)CC3)cnc2C(C)OC)c2c3cc(ccc31)-c1csc(n1)CC(NC(=O)C1CC1C)C(=O)N1CCCC(N1)C(=O)OCC(C)(C)C2",
    "endpoint": "pIC50",
    "limitOperator": "<",
    "reportedValue": 6.00
  },
  {
    "molecule": "CC(Nc1ccc2c(c1)OCCn1cc(N3C(=O)OCC3C(F)F)nc1-2)C(N)=O (centres undefined) + CCn1c(-c2cc(N3CCN(C)CC3)cnc2C(C)OC)c2c3cc(ccc31)-c1csc(n1)CC(NC(=O)C1CC1C)C(=O)N1CCCC(N1)C(=O)OCC(C)(C)C2",
    "endpoint": "pIC50",
    "limitOperator": "=",
    "reportedValue": 5.86
  },
  {
    "molecule": "C[C@@H](NC(=O)c1ncnc(N)c1Cl)c1ncc(C(=O)Nc2cc(C(F)(F)F)c(Cl)cn2)s1 + CCn1c(-c2cc(N3CCN(C)CC3)cnc2C(C)OC)c2c3cc(ccc31)-c1csc(n1)CC(NC(=O)C1CC1C)C(=O)N1CCCC(N1)C(=O)OCC(C)(C)C2",
    "endpoint": "pIC50",
    "limitOperator": "<",
    "reportedValue": 5.00
  }
]
